Source: patent US20260242478A1

Could you please report measured t1/2 for the items listed next?
# Study Target: Ab-15
# Sequence (heavy, as listed by the source, chain 1 of 2): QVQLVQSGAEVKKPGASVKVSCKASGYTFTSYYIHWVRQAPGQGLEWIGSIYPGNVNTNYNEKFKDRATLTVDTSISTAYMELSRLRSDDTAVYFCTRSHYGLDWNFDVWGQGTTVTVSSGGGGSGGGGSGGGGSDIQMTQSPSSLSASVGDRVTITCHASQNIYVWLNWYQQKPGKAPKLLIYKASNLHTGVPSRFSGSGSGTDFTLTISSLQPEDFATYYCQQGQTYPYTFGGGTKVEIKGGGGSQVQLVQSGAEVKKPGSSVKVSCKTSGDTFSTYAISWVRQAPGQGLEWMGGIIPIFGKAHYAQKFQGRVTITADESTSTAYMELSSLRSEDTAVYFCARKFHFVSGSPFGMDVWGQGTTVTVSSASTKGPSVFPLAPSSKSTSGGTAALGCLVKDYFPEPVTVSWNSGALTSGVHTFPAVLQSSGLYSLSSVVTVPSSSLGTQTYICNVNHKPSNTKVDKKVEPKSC
# Sequence (light, as listed by the source, chain 2 of 2): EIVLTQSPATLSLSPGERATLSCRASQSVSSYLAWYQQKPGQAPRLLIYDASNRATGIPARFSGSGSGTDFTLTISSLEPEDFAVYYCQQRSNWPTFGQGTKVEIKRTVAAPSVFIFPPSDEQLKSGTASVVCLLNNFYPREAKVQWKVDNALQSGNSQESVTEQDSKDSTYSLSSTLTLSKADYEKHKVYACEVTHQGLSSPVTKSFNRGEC
# Protocol Description: BLI (Octet): sensor loaded with 200 nM biotinylated peptide, 100 nM Ab-15;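 further: binding association and dissociation tracked in real time, fitted to a 1:1 binding model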
Where no end group is shown, it is not given here.
Answer format: value, then unit.

// query Query (binder): FDWCPRDLWVHCFA (cysteine pairing not given here; also: biotinylated, site not given here, CD28 peptide mask) [Peptide-63] ; field requested: t1/2
// result 3.3 min

// query For DDWCPRDLWVHCFA (cysteine pairing not given here; also: biotinylated, site not given here, CD28 peptide mask) [Peptide-55] , what is its reported t1/2?
// result 4.2 min

// query Which t1/2 value is on record for WDWCPRDLWVHCFA (cysteine pairing not given here; also: biotinylated, site not given here, CD28 peptide mask) [Peptide-67] ?
// result 4.1 min

// query Fill blank: measured t1/2 of the binder KDWCPRDLWVHCFA (cysteine pairing not given here; also: biotinylated, site not given here, CD28 peptide mask) [Peptide-62] is ____.
// result 4 min

// query Which value of t1/2 has been reported for LDWCPRDLWVHCFA (cysteine pairing not given here; also: biotinylated, site not given here, CD28 peptide mask) [Peptide-61] in the records?
// result 4.5 min

// query Item YDWCPRDLWVHCFA (cysteine pairing not given here; also: biotinylated, site not given here, CD28 peptide mask) [Peptide-68] has what recorded t1/2?
// result 2.9 min

// query Endpoint output: t1/2 of TDWCPRDLWVHCFA (cysteine pairing not given here; also: biotinylated, site not given here, CD28 peptide mask) [Peptide-66] . Value?
// result 4.2 min

// query Looking for the measured t1/2 of GDWCPRDLWVHCFA (cysteine pairing not given here; also: biotinylated, site not given here, CD28 peptide mask) [Peptide-58] , can you help?
// result 3.9 min

// query Would you mind telling me what t1/2 value was observed for VDWCPRDLWVHCFA (cysteine pairing not given here; also: biotinylated, site not given here, CD28 peptide mask) [Peptide-69] ?
// result 2.9 min
